- target.or.test.system: T1, APC8191-AA
- T1 chain: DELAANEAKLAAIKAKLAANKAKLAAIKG
- experimental.details: two-hybrid library CCmax;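 note: natural log of median RNA to DNA barcode read ratio; higher means stronger binding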
- measurement.context: mean of both orientations
value.kind: interaction score

Solved cases (2 shown):
[[record]]
binder = "DENAALEAENAALEAKAAALKAELAAEEG [APC4436-AA]"
value_kind = "interaction score"
numeric_readout = -2.27

[[record]]
binder = "DKIAALEAENAALKAKNAALEAEIAALKG [4H2290-AA]"
value_kind = "interaction score"
numeric_readout = -1.64


a. DEIAALKAKIAALEAKIAALEAKNAALEG [4H807-AA]
b. DKNAALEAKIAALEAEIAALEAEIAALKG [4H3330-AA]
Ask | Returns: the argument ( a or b ) having the larger interaction score. Reply briefly: the label of your chosen item.
Reply | b
